Assay Target: p55 TNF-α receptor on MRC-5 cells (human) (UniProt P19438)
Sequence (P19438 30-455): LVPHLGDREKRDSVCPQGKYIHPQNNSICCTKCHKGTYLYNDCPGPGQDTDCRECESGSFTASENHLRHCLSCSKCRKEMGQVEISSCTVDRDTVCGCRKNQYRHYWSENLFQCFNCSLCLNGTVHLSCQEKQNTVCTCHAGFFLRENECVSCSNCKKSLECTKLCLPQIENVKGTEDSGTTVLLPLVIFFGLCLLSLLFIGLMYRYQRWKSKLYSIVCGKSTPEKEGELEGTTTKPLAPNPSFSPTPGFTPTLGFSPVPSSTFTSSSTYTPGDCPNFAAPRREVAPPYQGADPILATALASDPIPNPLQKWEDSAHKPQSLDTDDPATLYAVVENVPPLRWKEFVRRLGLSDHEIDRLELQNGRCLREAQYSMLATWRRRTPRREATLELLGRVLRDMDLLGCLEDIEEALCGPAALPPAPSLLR
Assay Procedure: cell-based or functional assay
Let's look at some binders and their measured log10 MRC5 cell assay ND 50.
Base-10 log of MRC5 cell assay ND 50, unit nM.

Consider the worked cases shown below.
# Binder, Observable, Reported Value
measured = [
    ("TAR2-10-27 Asp62cys 30K MAL PEG (protein, 30K MAL-PEG on Cys62) VH: ASTEVQLLESGGGLVQPGGSLRLSCAASGFTFEWYWMGWVRQAPGKGLEWVSAISGSGGSTYYACSVKGRFTISRDNSKNTLYLQMNSLRAEDAAVYYCAKVKLGGGPNFGYRGQGTLVTVSS", "log10 MRC5 cell assay ND 50", 3.00),
    ("TAR2-10-27 Pro41cys 30K MAL PEG (other, 30K MAL-PEG on Cys41, For numbering and entry offset see m28) VH: ASTEVQLLESGGGLVQPGGSLRLSCAASGFTFEWYWMGWVRQACGKGLEWVSAISGSGGSTYYADSVKGRFTISRDNSKNTLYLQMNSLRAEDAAVYYCAKVKLGGGPNFGYRGQGTLVTVSS", "log10 MRC5 cell assay ND 50", 2.30),
    ("TAR2-10-27 Pro41cys blocked (other, Cys41 blocked with N-ethylmaleimide, For numbering and entry offset see m28) VH: ASTEVQLLESGGGLVQPGGSLRLSCAASGFTFEWYWMGWVRQACGKGLEWVSAISGSGGSTYYADSVKGRFTISRDNSKNTLYLQMNSLRAEDAAVYYCAKVKLGGGPNFGYRGQGTLVTVSS", "log10 MRC5 cell assay ND 50", 1.65),
    ("TAR2-10-27 Ser120cys 30K MAL PEG (other, 30K MAL-PEG on the C-terminal Cys (Ser120cys), TAR2-10-27 cys; For the limits of the entry see m36; also called TAR210-27 30K MAL PEG) VH: ASTEVQLLESGGGLVQPGGSLRLSCAASGFTFEWYWMGWVRQAPGKGLEWVSAISGSGGSTYYADSVKGRFTISRDNSKNTLYLQMNSLRAEDAAVYYCAKVKLGGGPNFGYRGQGTLVTVSC", "log10 MRC5 cell assay ND 50", 2.78),
    ("TAR2-10-27 Gln13cys blocked (other, Cys13 blocked with N-ethylmaleimide, For numbering and entry offset see m28) VH: ASTEVQLLESGGGLVCPGGSLRLSCAASGFTFEWYWMGWVRQAPGKGLEWVSAISGSGGSTYYADSVKGRFTISRDNSKNTLYLQMNSLRAEDAAVYYCAKVKLGGGPNFGYRGQGTLVTVSS", "log10 MRC5 cell assay ND 50", 1.48),
    ("TAR2-10-27 Leu115cys blocked (other, Cys115 blocked with N-ethylmaleimide, For numbering and entry offset see m28) VH: ASTEVQLLESGGGLVQPGGSLRLSCAASGFTFEWYWMGWVRQAPGKGLEWVSAISGSGGSTYYADSVKGRFTISRDNSKNTLYLQMNSLRAEDAAVYYCAKVKLGGGPNFGYRGQGTCVTVSS", "log10 MRC5 cell assay ND 50", 1.48),
    ("TAR2-10-27 Gln13cys 30K MAL PEG (other, 30K MAL-PEG on Cys13, For numbering and entry offset see m28) VH: ASTEVQLLESGGGLVCPGGSLRLSCAASGFTFEWYWMGWVRQAPGKGLEWVSAISGSGGSTYYADSVKGRFTISRDNSKNTLYLQMNSLRAEDAAVYYCAKVKLGGGPNFGYRGQGTLVTVSS", "log10 MRC5 cell assay ND 50", 2.30),
]

Now for a further binder.
-- ask For the binder TAR2-10-27 Gln112cys 30K MAL PEG (other, 30K MAL-PEG on Cys112, For numbering and entry offset see m28) VH: ASTEVQLLESGGGLVQPGGSLRLSCAASGFTFEWYWMGWVRQAPGKGLEWVSAISGSGGSTYYADSVKGRFTISRDNSKNTLYLQMNSLRAEDAAVYYCAKVKLGGGPNFGYRGCGTLVTVSS , report log10 MRC5 cell assay ND 50.
-- reply 2.81

Hey, just so you know, these numbers are from patent US20060286066A1.
